Origin of the recorded values: patent US20250154202A1

experimental.setup: mouse, in vivo, iv, 3 mg/kg
observed.property: MRT last (min)
Give just the numeric value; min need not be written.

Recorded result, Ac-PSRLEEELRRRLTE-NH2 [SD14316] , MRT last: 3.7

====

Please go through the items and note down their Conc. (% of T0).
method.summary: Plasma stability, mouse plasma
experimental.setup: mouse plasma, 37° C., timepoint 0 h
Bridge positions count the residues as written; N and C are the ends. Square brackets hold non-standard residues; d marks the D form. Peptide text beside a SMILES is read from it.

Recorded result, CC(=O)N1CCC[C@H]1C(=O)N[C@@H](CO)C(=O)N[C@@H](CCCNC(=N)N)C(=O)N[C@@H](CC(C)C)C(=O)N[C@@H](CCC(=O)O)C(=O)N[C@H]1CCC(=O)NCCCC[C@H](C(=O)N[C@@H](CCCNC(=N)N)C(=O)N[C@@H](CC(C)C)C(=O)N[C@H](C(=O)N[C@@H](CCC(=O)O)C(N)=O)[C@@H](C)O)NC(=O)[C@H](CCCNC(=N)N)NC(=O)[C@H](CC(C)C)NC(=O)[C@H](CCC(=O)O)NC1=O [SD15808] (Ac-PSRLEEELR[dK]RLTE-NH2; lactam 6-10) , Conc. (% of T0): 100.0 % of T0

Recorded result, CC(=O)N[C@@H](CO)C(=O)N[C@@H](CCCNC(=N)N)C(=O)N[C@@H](CC(C)C)C(=O)N[C@@H](CCC(=O)O)C(=O)N[C@@H](CCC(=O)O)C(=O)N[C@@H](CCC(=O)O)C(=O)N[C@@H](CC(C)C)C(=O)N[C@@H](CCCNC(=N)N)C(=O)N[C@H]1CCCCNC(=O)CC[C@@H](C(N)=O)NC(=O)[C@H]([C@@H](C)O)NC(=O)[C@H](CC(C)C)NC(=O)[C@H](CCCNC(=N)N)NC1=O [SD15193] (Ac-SRLEEELRKRLTE-NH2; lactam 9-13) , Conc. (% of T0): 100.0 % of T0

====

Please go through the items and note down their Tube 3 (compound concentration).
method.summary: Plasma stability, human plasma
experimental.setup: human plasma, 37° C., timepoint 2 h
Bridge positions count the residues as written; N and C are the ends. Peptide text beside a SMILES is read from it.
Returns: the value as a bare number; no unit string appended.

Recorded result, CC(=O)N[C@@H](CO)C(=O)N[C@@H](CCCNC(=N)N)C(=O)N[C@@H](CC(C)C)C(=O)N[C@@H](CCC(=O)O)C(=O)N[C@H]1CCC(=O)NCCCC[C@@H](C(=O)N[C@@H](CCCNC(=N)N)C(=O)N[C@@H](CCCNC(=N)N)C(=O)N[C@@H](CC(C)C)C(=O)N[C@H](C(=O)N[C@@H](CCC(=O)O)C(N)=O)[C@@H](C)O)NC(=O)[C@H](CC(C)C)NC(=O)[C@H](CCC(=O)O)NC1=O [SD15192] (Ac-SRLEEELKRRLTE-NH2; lactam 5-8) , Tube 3 (compound concentration): 1.731

Recorded result, CC(=O)N[C@@H](CO)C(=O)N[C@@H](CCCNC(=N)N)C(=O)N[C@@H](CC(C)C)C(=O)N[C@@H](CCC(=O)O)C(=O)N[C@H]1CC(=O)NCCCC[C@@H](C(=O)N[C@@H](CCCNC(=N)N)C(=O)N[C@@H](CC(C)C)C(=O)N[C@H](C(=O)N[C@@H](CCC(=O)O)C(N)=O)[C@@H](C)O)NC(=O)[C@H](CCCNC(=N)N)NC(=O)[C@H](CC(C)C)NC(=O)[C@H](CCC(=O)O)NC1=O [SD15196] (Ac-SRLEDELRKRLTE-NH2; lactam 5-9) , Tube 3 (compound concentration): 2.212

Recorded result, CC(=O)N[C@@H](CO)C(=O)N[C@@H](CCCNC(=N)N)C(=O)N[C@@H](CC(C)C)C(=O)N[C@@H](CCC(=O)O)C(=O)N[C@@H](CCC(=O)O)C(=O)N[C@@H](CCC(=O)O)C(=O)N[C@@H](CC(C)C)C(=O)N[C@@H](CCCNC(=N)N)C(=O)N[C@H]1CCCCNC(=O)CC[C@@H](C(N)=O)NC(=O)[C@H]([C@@H](C)O)NC(=O)[C@H](CC(C)C)NC(=O)[C@H](CCCNC(=N)N)NC1=O [SD15193] (Ac-SRLEEELRKRLTE-NH2; lactam 9-13) , Tube 3 (compound concentration): 2.717

Recorded result, CC(=O)N[C@@H](CO)C(=O)N[C@@H](CCCNC(=N)N)C(=O)N[C@@H](CC(C)C)C(=O)N[C@@H](CCC(=O)O)C(=O)N[C@H]1CCC(=O)NCCCC[C@@H](C(=O)N[C@@H](CCCNC(=N)N)C(=O)N[C@@H](CC(C)C)C(=O)N[C@H](C(=O)N[C@@H](CCC(=O)O)C(N)=O)[C@@H](C)O)NC(=O)[C@H](CCCNC(=N)N)NC(=O)[C@H](CC(C)C)NC(=O)[C@H](CCC(=O)O)NC1=O [SD15194] (Ac-SRLEEELRKRLTE-NH2; lactam 5-9) , Tube 3 (compound concentration): 2.117

====

method.summary: Plasma stability, mouse plasma
experimental.setup: mouse plasma, 37° C., timepoint 1 h
Bridge positions count the residues as written; N and C are the ends. Square brackets hold non-standard residues; d marks the D form. Peptide text beside a SMILES is read from it.
observed.property: Mean (compound concentration)
Returns: the value as a bare number; no unit string appended.

Recorded result, CC(=O)N1CCC[C@H]1C(=O)N[C@@H](CO)C(=O)N[C@@H](CCCNC(=N)N)C(=O)N[C@@H](CC(C)C)C(=O)N[C@@H](CCC(=O)O)C(=O)N[C@H]1CCCCNC(=O)CC[C@@H](C(=O)N[C@@H](CCCNC(=N)N)C(=O)N[C@@H](CC(C)C)C(=O)N[C@H](C(=O)N[C@@H](CCC(=O)O)C(N)=O)[C@@H](C)O)NC(=O)[C@H](CCCNC(=N)N)NC(=O)[C@H](CC(C)C)NC(=O)[C@H](CCC(=O)O)NC1=O [SD15805] (Ac-PSRLEKELRERLTE-NH2; lactam 6-10) , Mean (compound concentration): 2.213

Recorded result, CC(=O)N1CCC[C@H]1C(=O)N[C@@H](CO)C(=O)N[C@@H](CCCNC(=N)N)C(=O)N[C@@H](CC(C)C)C(=O)N[C@@H](CCC(=O)O)C(=O)N[C@H]1CCC(=O)NCCCC[C@H](C(=O)N[C@@H](CCCNC(=N)N)C(=O)N[C@@H](CC(C)C)C(=O)N[C@H](C(=O)N[C@@H](CCC(=O)O)C(N)=O)[C@@H](C)O)NC(=O)[C@H](CCCNC(=N)N)NC(=O)[C@H](CC(C)C)NC(=O)[C@H](CCC(=O)O)NC1=O [SD15808] (Ac-PSRLEEELR[dK]RLTE-NH2; lactam 6-10) , Mean (compound concentration): 2.780

Recorded result, CC(=O)N1CCC[C@H]1C(=O)N[C@@H](CO)C(=O)N[C@@H](CCCNC(=N)N)C(=O)N[C@@H](CC(C)C)C(=O)N[C@@H](CCC(=O)O)C(=O)N[C@H]1CSSC[C@H](C(=O)N[C@@H](CCCNC(=N)N)C(=O)N[C@@H](CCCNC(=N)N)C(=O)N[C@@H](CC(C)C)C(=O)N[C@H](C(=O)N[C@@H](CCC(=O)O)C(N)=O)[C@@H](C)O)NC(=O)[C@H](CC(C)C)NC(=O)[C@H](CCC(=O)O)NC1=O [SD15807] (Ac-PSRLECEL[dC]RRLTE-NH2; disulfide 6-9) , Mean (compound concentration): 1.710

Recorded result, CC(=O)N1CCC[C@H]1C(=O)N[C@@H](CO)C(=O)N[C@@H](CCCNC(=N)N)C(=O)N[C@@H](CC(C)C)C(=O)N[C@H]1CCC(=O)NCCCC[C@@H](C(=O)N[C@@H](CCCNC(=N)N)C(=O)N[C@@H](CCCNC(=N)N)C(=O)N[C@@H](CC(C)C)C(=O)N[C@H](C(=O)N[C@@H](CCC(=O)O)C(N)=O)[C@@H](C)O)NC(=O)[C@H](CC(C)C)NC(=O)[C@H](CCC(=O)O)NC(=O)[C@H](CCC(=O)O)NC1=O [SD15806] (Ac-PSRLEEELKRRLTE-NH2; lactam 5-9) , Mean (compound concentration): 2.717

====

Please go through the items and note down their EC50.
experimental.target: anti-ALFA VHH
method.summary: binding affinity to the anti-ALFA VHH (log(agonist) vs. response, variable slope)
experimental.setup: binding to anti-ALFA VHH
Bridge positions count the residues as written; N and C are the ends. Peptide text beside a SMILES is read from it.
Give just the numeric value; nM need not be written.

Recorded result, CC(=O)N[C@@H](CO)C(=O)N[C@@H](CCCNC(=N)N)C(=O)N[C@@H](CC(C)C)C(=O)N[C@@H](CCC(=O)O)C(=O)N[C@@H](CCC(=O)O)C(=O)N[C@@H](CCC(=O)O)C(=O)N[C@@H](CC(C)C)C(=O)N[C@@H](CCCNC(=N)N)C(=O)N[C@H]1CCCCNC(=O)CC[C@@H](C(N)=O)NC(=O)[C@H]([C@@H](C)O)NC(=O)[C@H](CC(C)C)NC(=O)[C@H](CCCNC(=N)N)NC1=O [SD15193] (Ac-SRLEEELRKRLTE-NH2; lactam 9-13) , EC50: 6.05

Recorded result, CC(=O)N[C@@H](CO)C(=O)N[C@@H](CCCNC(=N)N)C(=O)N[C@@H](CC(C)C)C(=O)N[C@@H](CCC(=O)O)C(=O)N[C@H]1CCC(=O)NCCCC[C@@H](C(=O)N[C@@H](CCCNC(=N)N)C(=O)N[C@@H](CCCNC(=N)N)C(=O)N[C@@H](CC(C)C)C(=O)N[C@H](C(=O)N[C@@H](CCC(=O)O)C(N)=O)[C@@H](C)O)NC(=O)[C@H](CC(C)C)NC(=O)[C@H](CCC(=O)O)NC1=O [SD15192] (Ac-SRLEEELKRRLTE-NH2; lactam 5-8) , EC50: 5.98

Recorded result, CC(=O)N[C@@H](CO)C(=O)N[C@@H](CCCNC(=N)N)C(=O)N[C@@H](CC(C)C)C(=O)N[C@@H](CCC(=O)O)C(=O)N[C@H]1CC(=O)NCCCC[C@@H](C(=O)N[C@@H](CCCNC(=N)N)C(=O)N[C@@H](CC(C)C)C(=O)N[C@H](C(=O)N[C@@H](CCC(=O)O)C(N)=O)[C@@H](C)O)NC(=O)[C@H](CCCNC(=N)N)NC(=O)[C@H](CC(C)C)NC(=O)[C@H](CCC(=O)O)NC1=O [SD15196] (Ac-SRLEDELRKRLTE-NH2; lactam 5-9) , EC50: 377

Recorded result, CC(=O)N[C@@H](CO)C(=O)N[C@@H](CCCNC(=N)N)C(=O)N[C@@H](CC(C)C)C(=O)N[C@@H](CCC(=O)O)C(=O)N[C@H]1CCC(=O)NCCCC[C@@H](C(=O)N[C@@H](CCCNC(=N)N)C(=O)N[C@@H](CC(C)C)C(=O)N[C@H](C(=O)N[C@@H](CCC(=O)O)C(N)=O)[C@@H](C)O)NC(=O)[C@H](CCCNC(=N)N)NC(=O)[C@H](CC(C)C)NC(=O)[C@H](CCC(=O)O)NC1=O [SD15194] (Ac-SRLEEELRKRLTE-NH2; lactam 5-9) , EC50: 5.97
